Each recorded value in this set is attributed to paper PMC8693618.

Molecular target: human PANK3 (Homo sapiens)
Sequence (Q9H999 whole entry): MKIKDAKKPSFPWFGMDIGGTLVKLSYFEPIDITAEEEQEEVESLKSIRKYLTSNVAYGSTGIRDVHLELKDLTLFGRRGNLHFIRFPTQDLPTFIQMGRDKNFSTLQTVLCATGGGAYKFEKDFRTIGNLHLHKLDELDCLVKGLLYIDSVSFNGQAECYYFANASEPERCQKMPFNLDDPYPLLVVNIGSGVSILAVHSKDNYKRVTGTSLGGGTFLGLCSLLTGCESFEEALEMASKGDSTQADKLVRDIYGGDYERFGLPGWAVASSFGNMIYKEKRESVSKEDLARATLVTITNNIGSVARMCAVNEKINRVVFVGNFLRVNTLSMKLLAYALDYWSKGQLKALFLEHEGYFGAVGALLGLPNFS
Conditions: tested up to 10 μM

Chemical structure: CCCCc1ccc(NC(=O)N2CCN(c3ccc(C#N)cn3)CC2)cc1
PANK3 inhibitory activity in words: did not show activity
//
Chemical structure: N#Cc1ccc(N2CCN(C(=O)Nc3ccc(Br)cc3)CC2)nc1
PANK3 inhibitory activity in words: inactive
//
Chemical structure: N#Cc1ccc(N2CCN(C(=O)Nc3ccc(C(F)(F)F)cc3)CC2)nc1
PANK3 inhibitory activity in words: inactive
//
Chemical structure: CCc1ccc(NC(=O)N2CCN(c3ccc(C#N)cn3)CC2)cc1
PANK3 inhibitory activity in words: did not show activity
